Values were extracted from patent US8791264B2.

pIC50 overview
- system.under.test: N-type calcium channel (NTCC) (Homo sapiens, UniProt Q00975)
- Sequence (Q00975 whole entry): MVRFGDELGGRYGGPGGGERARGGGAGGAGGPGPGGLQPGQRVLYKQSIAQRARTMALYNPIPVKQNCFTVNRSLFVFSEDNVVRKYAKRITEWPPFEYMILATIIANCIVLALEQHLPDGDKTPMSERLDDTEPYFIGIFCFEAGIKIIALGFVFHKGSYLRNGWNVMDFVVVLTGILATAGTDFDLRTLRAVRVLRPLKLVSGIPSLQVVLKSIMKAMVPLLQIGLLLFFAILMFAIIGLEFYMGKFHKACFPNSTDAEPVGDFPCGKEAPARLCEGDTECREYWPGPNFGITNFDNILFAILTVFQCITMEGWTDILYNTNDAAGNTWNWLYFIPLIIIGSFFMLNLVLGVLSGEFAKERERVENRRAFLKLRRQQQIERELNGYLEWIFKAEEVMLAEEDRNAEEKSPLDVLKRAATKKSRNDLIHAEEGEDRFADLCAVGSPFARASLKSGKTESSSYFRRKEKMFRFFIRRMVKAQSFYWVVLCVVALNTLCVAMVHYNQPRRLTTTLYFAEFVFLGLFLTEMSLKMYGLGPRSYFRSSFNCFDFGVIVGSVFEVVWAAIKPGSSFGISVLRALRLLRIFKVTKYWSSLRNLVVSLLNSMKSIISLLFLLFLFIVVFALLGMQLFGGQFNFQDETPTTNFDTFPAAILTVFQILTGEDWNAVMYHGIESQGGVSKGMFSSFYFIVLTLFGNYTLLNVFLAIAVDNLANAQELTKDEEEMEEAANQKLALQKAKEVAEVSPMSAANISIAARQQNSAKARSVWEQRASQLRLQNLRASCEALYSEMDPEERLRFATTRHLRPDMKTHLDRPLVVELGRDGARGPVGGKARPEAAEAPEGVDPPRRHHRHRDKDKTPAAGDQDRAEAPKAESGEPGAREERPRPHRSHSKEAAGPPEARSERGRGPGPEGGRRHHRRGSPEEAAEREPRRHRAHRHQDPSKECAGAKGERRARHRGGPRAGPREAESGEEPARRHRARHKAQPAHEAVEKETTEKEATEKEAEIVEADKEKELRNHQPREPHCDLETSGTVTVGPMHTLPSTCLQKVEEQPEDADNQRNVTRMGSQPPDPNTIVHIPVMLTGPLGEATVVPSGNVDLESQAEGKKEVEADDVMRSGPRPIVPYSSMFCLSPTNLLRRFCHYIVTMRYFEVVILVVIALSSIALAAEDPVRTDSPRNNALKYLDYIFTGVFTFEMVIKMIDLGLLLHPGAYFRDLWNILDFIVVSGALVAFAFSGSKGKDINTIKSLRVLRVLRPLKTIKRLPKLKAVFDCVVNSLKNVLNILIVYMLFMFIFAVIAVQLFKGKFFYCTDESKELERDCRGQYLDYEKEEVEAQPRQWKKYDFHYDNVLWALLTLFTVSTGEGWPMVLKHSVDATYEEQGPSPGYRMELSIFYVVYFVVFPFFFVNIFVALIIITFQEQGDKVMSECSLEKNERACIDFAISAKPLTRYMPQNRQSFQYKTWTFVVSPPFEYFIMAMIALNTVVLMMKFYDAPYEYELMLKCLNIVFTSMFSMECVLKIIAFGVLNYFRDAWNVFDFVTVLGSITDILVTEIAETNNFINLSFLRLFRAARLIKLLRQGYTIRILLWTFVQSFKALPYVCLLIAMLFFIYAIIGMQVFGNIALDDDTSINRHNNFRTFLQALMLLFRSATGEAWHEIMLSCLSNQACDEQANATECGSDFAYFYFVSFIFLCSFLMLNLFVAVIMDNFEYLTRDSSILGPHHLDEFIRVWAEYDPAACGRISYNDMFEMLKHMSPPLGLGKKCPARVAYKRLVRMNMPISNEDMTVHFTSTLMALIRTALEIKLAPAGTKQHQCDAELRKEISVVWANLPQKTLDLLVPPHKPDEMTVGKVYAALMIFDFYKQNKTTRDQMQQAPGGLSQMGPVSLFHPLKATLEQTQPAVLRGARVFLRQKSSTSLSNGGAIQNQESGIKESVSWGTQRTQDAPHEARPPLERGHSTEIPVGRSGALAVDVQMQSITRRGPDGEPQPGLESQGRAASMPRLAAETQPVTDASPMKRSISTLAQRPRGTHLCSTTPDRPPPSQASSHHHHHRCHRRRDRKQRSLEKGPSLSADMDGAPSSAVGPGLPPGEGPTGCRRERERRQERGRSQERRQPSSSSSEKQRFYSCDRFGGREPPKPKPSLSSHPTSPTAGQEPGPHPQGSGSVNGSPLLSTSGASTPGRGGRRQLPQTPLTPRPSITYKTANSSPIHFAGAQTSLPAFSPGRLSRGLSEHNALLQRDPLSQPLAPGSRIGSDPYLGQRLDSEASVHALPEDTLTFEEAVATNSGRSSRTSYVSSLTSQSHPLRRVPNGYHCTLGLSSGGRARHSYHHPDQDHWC
- Sequence (P54289 25-956 partner limits assumed): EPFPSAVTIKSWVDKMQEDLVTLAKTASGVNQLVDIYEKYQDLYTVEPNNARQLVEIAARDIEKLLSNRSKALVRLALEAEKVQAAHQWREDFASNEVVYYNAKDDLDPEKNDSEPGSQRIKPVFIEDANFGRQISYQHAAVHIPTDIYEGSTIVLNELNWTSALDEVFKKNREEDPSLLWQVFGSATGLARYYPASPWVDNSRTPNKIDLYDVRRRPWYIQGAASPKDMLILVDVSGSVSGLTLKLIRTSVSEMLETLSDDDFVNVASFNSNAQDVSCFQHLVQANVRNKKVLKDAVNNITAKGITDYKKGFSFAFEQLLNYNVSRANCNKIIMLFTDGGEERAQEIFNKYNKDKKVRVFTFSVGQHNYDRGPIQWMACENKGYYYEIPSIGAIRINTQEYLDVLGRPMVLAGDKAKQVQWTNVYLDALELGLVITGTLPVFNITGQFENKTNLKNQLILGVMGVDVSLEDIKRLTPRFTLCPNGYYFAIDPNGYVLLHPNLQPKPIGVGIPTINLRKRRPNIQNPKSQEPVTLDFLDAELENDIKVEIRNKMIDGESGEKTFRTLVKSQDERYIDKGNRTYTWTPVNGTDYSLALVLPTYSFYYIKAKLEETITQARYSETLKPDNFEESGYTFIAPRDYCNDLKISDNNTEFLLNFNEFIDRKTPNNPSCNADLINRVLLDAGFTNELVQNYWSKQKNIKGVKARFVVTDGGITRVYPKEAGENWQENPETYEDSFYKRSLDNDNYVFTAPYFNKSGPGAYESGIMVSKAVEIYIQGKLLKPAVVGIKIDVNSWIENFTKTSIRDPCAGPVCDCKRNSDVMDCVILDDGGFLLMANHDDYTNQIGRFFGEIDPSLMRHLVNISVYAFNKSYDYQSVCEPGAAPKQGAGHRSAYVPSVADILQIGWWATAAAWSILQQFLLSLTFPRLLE
- Sequence (P54289 957-1103 partner limits assumed): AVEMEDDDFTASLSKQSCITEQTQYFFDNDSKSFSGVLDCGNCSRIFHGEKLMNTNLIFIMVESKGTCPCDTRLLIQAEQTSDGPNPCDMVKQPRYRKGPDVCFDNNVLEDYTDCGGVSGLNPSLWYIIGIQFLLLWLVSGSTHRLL
- Sequence (P54284 whole entry partner): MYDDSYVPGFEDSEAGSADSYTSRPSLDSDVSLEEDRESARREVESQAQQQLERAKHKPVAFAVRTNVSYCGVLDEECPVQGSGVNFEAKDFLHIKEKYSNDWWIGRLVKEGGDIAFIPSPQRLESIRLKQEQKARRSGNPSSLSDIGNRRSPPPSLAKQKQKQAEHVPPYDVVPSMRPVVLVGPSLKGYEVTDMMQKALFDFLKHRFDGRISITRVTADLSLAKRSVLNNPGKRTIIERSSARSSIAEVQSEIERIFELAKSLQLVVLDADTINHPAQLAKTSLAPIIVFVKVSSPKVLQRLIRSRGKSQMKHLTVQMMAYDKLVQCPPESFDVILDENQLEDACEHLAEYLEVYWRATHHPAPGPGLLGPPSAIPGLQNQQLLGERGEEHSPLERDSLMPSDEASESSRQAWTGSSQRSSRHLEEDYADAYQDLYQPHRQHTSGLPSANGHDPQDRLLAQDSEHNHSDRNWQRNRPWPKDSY
- assay: FLIPR calcium mobilization assay for N-type calcium channel
- test.conditions: calcium mobilization in vitro assay; differentiated IMR32 cells
pIC50 is a log-scale quantity: -log10 of the concentration expressed in molar.

>  <compound>
O=C(CN1CCC(N(C2CC2)S(=O)(=O)c2cccc(C(F)(F)F)c2)CC1)Nc1cncc(F)c1 [Compound 78]

>  <pIC50>
6.21

$$$$
>  <compound>
CC(C)N(C1CCN(CC(=O)NCc2ccc(F)cc2)CC1)S(=O)(=O)c1cccc(C(F)(F)F)c1 [Compound 42k]

>  <pIC50>
6.48

$$$$
>  <compound>
CCOc1cc(F)ccc1NC(=O)CN1CCC(N(C2CC2)S(=O)(=O)c2cccc(C(F)(F)F)c2)CC1 [Compound 70]

>  <pIC50>
6.04

$$$$
>  <compound>
COc1ccc(CNCC(=O)N2CCC(N(C3CC3)S(=O)(=O)c3cccc(C(F)(F)F)c3)CC2)cc1 [Compound 99]

>  <pIC50>
6.46

$$$$
>  <compound>
CC(C)N(C1CCN(C(=O)CN(CCO)Cc2ccccc2)CC1)S(=O)(=O)c1cccc(C(F)(F)F)c1 [Compound 103]

>  <pIC50>
6.15

$$$$

Exercise: Consider the compound O=C(CN1CCC(N(C2CC2)S(=O)(=O)c2cccc(C(F)(F)F)c2)CC1)Nc1cc(C(F)(F)F)ccc1Cl [Compound 77] and give its measured pIC50.
Key: 5.18

Exercise: Consider the compound `COc1cc(NCCC(=O)N2CCC(N(C(C)C)S(=O)(=O)c3cccc(C(F)(F)F)c3)CC2)ccc1F` and give its measured pIC50.
Key: 6.21

Exercise: Consider the compound O=C(CN1CCC(N(C2CC2)S(=O)(=O)c2cccc(C(F)(F)F)c2)CC1)Nc1ccc(C(F)(F)F)cc1F [Compound 75] and give its measured pIC50.
Key: 6.11

Exercise: Consider the compound CC(C)(C)c1ccc(NC(=O)CN2CCC(N(C3CC3)S(=O)(=O)c3cccc(C(F)(F)F)c3)CC2)cc1 [Compound 56] and give its measured pIC50.
Key: 6.12

Exercise: Consider the compound CCOC(=O)c1ccc(NC(=O)CN2CCC(N(C3CC3)S(=O)(=O)c3cccc(C(F)(F)F)c3)CC2)cc1 [Compound 54] and give its measured pIC50.
Key: 6.27

Exercise: Consider the compound CC(C)c1ccc(NC(=O)CN2CCC(N(C(C)C)S(=O)(=O)c3cccc(C(F)(F)F)c3)CC2)cc1 [Compound 42f] and give its measured pIC50.
Key: 6.20
